Origin of values: PubChem BioAssay (NCI)

Tested on: M14 melanoma
Test: NCI tumour cell line growth inhibition, 48 h

[
  {
    "molecule": "COC1CC(C)(N)C(O)C(C)O1 (stereo not drawn)",
    "TGI": "> 100 µM"
  },
  {
    "molecule": "Cc1cc(C)c(OC(=O)Nc2cccc3ccccc23)c(-c2ccccc2)c1",
    "TGI": "> 100 µM"
  },
  {
    "molecule": "CCCCC#COS(=O)(=O)c1ccc(C)cc1",
    "TGI": "> 100 µM"
  }
]

---

Test system: ACHN renal
Test: NCI tumour cell line growth inhibition, 48 h
measurementName: log10 TGI (log10 of the value in µM)

[
  {
    "compound": "N#CC1(C#N)C2=C(CCCC2)NC(c2ccc(Br)cc2)C1(C#N)C#N (configuration not stated)",
    "testedOn": "ACHN renal",
    "log10 TGI": 0.59
  },
  {
    "compound": "FC(F)(F)c1ccc(-c2cncn2-c2ccccc2)cc1",
    "testedOn": "ACHN renal",
    "log10 TGI": 1.36
  },
  {
    "compound": "COc1ccc(C(=O)/C=C2\\C(=O)Nc3ccc(Br)cc32)cc1",
    "testedOn": "ACHN renal",
    "log10 TGI": 0.53
  },
  {
    "compound": "FC(F)(F)c1cccc(Nc2nc3ccccc3nc2Nc2cccc(C(F)(F)F)c2)c1",
    "testedOn": "ACHN renal",
    "log10 TGI": 0.35
  },
  {
    "compound": "CC(=O)[CH-]C(C)=O.CC(=O)[CH-]C(C)=O.[CH2-]CCCCCCC.[CH2-]CCCCCCC.[Sn+4]",
    "testedOn": "ACHN renal",
    "log10 TGI": 1.85
  },
  {
    "compound": "COc1ccc(-c2cc(-c3cc(F)c(Cl)cc3Cl)[nH]n2)cc1OC",
    "testedOn": "ACHN renal",
    "log10 TGI": 1.48
  },
  {
    "compound": "Cc1c2cnccc2c(C)c2c1c1cc(CO)ccc1n2C",
    "testedOn": "ACHN renal",
    "log10 TGI": 0.06
  }
]
